METHOD: Metabolic stability in rat hepatocytes (rHep)
APPLIED_CONDITIONS: n = 1 or geometric mean of n = 2-3
PARAMETER_MEASURED: rHep CLint (μL/min/1E6)

The cases that follow already have their rHep CLint on record.
>>> value("N#C[C@@H]1CSCN1C(=O)CNC(=O)c1ccnc2ccc(N3C4CCC3COC4)cc12")
13
>>> value("N#C[C@@H]1CSCN1C(=O)CNC(=O)c1ccnc2ccc(N3CC4CCC(C3)O4)cc12")
6.2
>>> value("Cc1ccc(-c2ccc3nccc(C(=O)NCC(=O)N4CSC[C@H]4C#N)c3c2)cn1")
7.4

P: CC1(C2CC2)CN(c2ccc3nccc(C(=O)NCC(=O)N4CSC[C@H]4C#N)c3c2)C1
Q: N#C[C@@H]1CSCN1C(=O)CNC(=O)c1ccnc2ccc(N3CC(F)(F)C3)cc12
R: N#C[C@@H]1CSCN1C(=O)CNC(=O)c1ccnc2ccc(N3CC(OC(F)(F)F)C3)cc12
S: N#C[C@@H]1CSCN1C(=O)CNC(=O)c1ccnc2ccc(N3CC4CC4C3)cc12 (some centres unmarked)
Give the ascending ranking of the items by reported rHep CLint. Write the labels out in the order the request specifies.
R, Q, P, S

---

METHOD: Metabolic stability in rat hepatocytes (rHep)
APPLIED_CONDITIONS: n = 1 or geometric mean of n = 2-3
PARAMETER_MEASURED: rHep CLint (μL/min/1E6)

Completed entries (count: 3):
>>> value("N#C[C@@H]1CSCN1C(=O)CNC(=O)c1ccnc2ccc(N3CC(C(F)F)C3)cc12 [Example 28]")
13
>>> value("C[C@@H]1CCCN(c2ccc3nccc(C(=O)NCC(=O)N4CSC[C@H]4C#N)c3c2)C1=O (single isomer, unassigned) [Example 204]")
1.8
>>> value("N#C[C@@H]1CSCN1C(=O)CNC(=O)c1ccnc2ccc(N3CCC4(CCCCC4)OC3=O)cc12 [Example 110]")
3.3

P: CO[C@H]1CCN(c2ccc3nccc(C(=O)NCC(=O)N4CSC[C@H]4C#N)c3c2)C1 [Example 207]
Q: N#C[C@@H]1CSCN1C(=O)CNC(=O)c1ccnc2ccc(N3CCCC[C@H](F)C3)cc12 [Example 60]
R: COCC1(C)CN(c2ccc3nccc(C(=O)NCC(=O)N4CSC[C@H]4C#N)c3c2)C1 [Example 29]
S: CC1(F)CCN(c2ccc3nccc(C(=O)NCC(=O)N4CSC[C@H]4C#N)c3c2)CC1 [Example 34]
T: C[C@@H]1CCCN1c1ccc2nccc(C(=O)NCC(=O)N3CSC[C@H]3C#N)c2c1 [Example 211]
Sort ascending by rHep CLint. Return the labels ranked in the requested order, please.
P, R, S, Q, T

---

METHOD: Kinetic solubility
APPLIED_CONDITIONS: kinetic from dmso stock, Solubility, kinetic solubility; n = 1 or average of n = 2-3
PARAMETER_MEASURED: solubility (µM)

Example compounds with recorded solubility:
>>> value("CC1(C)CN(c2ccc3nccc(C(=O)NCC(=O)N4CSC[C@H]4C#N)c3c2)C(=O)O1")
27
>>> value("N#C[C@@H]1CSCN1C(=O)CNC(=O)c1ccnc2ccc(N3CCOc4ccccc43)cc12")
120
>>> value("N#C[C@@H]1CSCN1C(=O)CNC(=O)c1ccnc2ccc(N3C[C@@H]4C[C@H]3CO4)cc12")
930
>>> value("N#C[C@@H]1CSCN1C(=O)CNC(=O)c1ccnc2ccc(N3CC(F)(F)OC(F)(F)C3)cc12")
11

P: N#C[C@@H]1CSCN1C(=O)CNC(=O)c1ccnc2ccc(-c3cncnc3)cc12
Q: C[C@@]1(O)CCN(c2ccc3nccc(C(=O)NCC(=O)N4CSC[C@H]4C#N)c3c2)C1
R: C[C@H]1CN(c2ccc3nccc(C(=O)NCC(=O)N4CSC[C@H]4C#N)c3c2)CCO1
S: N#C[C@@H]1CSCN1C(=O)CNC(=O)c1ccnc2ccc(N3CC(F)(CF)C3)cc12
Arrange the 4 compounds by rising solubility, starting with the smallest. Write the labels in rank order as requested.
S, P, Q, R
(S: 62 µM, P: 120 µM, Q: 240 µM, R: 980 µM)

---

TEST_TARGET: FAP (Mus musculus (Mouse))
Sequence (P97321 24-761): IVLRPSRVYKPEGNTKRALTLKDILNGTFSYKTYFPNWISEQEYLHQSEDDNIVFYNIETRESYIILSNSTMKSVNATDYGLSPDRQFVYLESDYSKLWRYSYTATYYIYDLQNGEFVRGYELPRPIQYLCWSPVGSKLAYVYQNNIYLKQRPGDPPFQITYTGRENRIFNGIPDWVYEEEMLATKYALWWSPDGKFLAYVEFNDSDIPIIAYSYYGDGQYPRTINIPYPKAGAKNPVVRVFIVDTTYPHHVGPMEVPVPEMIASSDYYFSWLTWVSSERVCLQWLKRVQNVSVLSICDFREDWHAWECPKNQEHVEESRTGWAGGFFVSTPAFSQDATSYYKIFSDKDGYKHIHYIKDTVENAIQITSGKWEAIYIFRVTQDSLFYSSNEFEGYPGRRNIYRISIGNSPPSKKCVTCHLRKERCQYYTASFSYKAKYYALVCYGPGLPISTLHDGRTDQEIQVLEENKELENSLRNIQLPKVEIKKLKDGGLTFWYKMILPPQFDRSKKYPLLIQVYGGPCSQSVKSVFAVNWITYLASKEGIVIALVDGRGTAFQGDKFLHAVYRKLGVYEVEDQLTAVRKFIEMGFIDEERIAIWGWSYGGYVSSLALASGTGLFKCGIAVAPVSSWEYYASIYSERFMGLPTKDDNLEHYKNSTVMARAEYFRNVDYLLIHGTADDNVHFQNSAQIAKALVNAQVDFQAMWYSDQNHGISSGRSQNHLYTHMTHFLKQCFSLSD
METHOD: FAP plasma inhibition assay, mouse plasma
APPLIED_CONDITIONS: mouse plasma diluted 1:67, Ala-Pro-AMC 75 μM
pIC50: −log10 of the molar value.
PARAMETER_MEASURED: pIC50

>>> value("N#C[C@@H]1CSCN1C(=O)CNC(=O)c1ccnc2ccc(-c3cnn(C4CC4)c3)cc12")
9.30
>>> value("Cc1nn(C)cc1-c1ccc2nccc(C(=O)NCC(=O)N3CSC[C@H]3C#N)c2c1")
9.52
>>> value("N#C[C@@H]1CSCN1C(=O)CNC(=O)c1ccnc2ccc(N3CC(F)(CF)C3)cc12")
9.22
>>> value("Cc1nn(C2CCOCC2)c(C)c1-c1ccc2nccc(C(=O)NCC(=O)N3CSC[C@H]3C#N)c2c1")
9.22
>>> value("C[C@@H]1CN(c2ccc3nccc(C(=O)NCC(=O)N4CSC[C@H]4C#N)c3c2)C[C@@H](C)O1")
9.52
>>> value("N#C[C@@H]1CSCN1C(=O)CNC(=O)c1ccnc2ccc(N3CC4(C3)OCCO4)cc12")
9.70

A: C[C@@H]1CN(c2ccc3nccc(C(=O)NCC(=O)N4CSC[C@H]4C#N)c3c2)CCO1
B: N#C[C@@H]1CSCN1C(=O)CNC(=O)c1ccnc2ccc(N3CCOCC3)cc12
pIC50 comparison. Which is larger, A or B ? Indicate which entry you chose by stating its label.
A
(A: 9.70, B: 9.28)

---

TEST_TARGET: human Fibroblast activation protein alpha (hFAP) (Homo sapiens (Human), UniProt Q12884)
Sequence (Q12884 38-760): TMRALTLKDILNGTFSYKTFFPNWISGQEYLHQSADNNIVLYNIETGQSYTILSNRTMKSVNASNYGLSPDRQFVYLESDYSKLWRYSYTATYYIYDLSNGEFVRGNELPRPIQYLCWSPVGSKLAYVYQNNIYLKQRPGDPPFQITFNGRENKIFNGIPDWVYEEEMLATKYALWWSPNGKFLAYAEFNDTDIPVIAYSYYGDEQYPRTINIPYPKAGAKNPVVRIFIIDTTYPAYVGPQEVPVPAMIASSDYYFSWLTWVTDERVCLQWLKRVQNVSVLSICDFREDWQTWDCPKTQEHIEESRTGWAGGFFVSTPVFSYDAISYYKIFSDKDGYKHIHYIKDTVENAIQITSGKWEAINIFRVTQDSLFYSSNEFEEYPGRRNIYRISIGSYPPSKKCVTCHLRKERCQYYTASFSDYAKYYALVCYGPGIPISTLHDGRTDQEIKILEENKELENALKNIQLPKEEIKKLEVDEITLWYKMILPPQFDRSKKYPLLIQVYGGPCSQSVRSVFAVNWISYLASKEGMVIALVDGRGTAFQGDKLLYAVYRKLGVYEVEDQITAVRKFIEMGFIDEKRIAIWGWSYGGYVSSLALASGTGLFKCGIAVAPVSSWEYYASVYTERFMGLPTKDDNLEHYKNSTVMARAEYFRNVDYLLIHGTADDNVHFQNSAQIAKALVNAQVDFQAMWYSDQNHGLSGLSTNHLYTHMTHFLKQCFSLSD
pIC50: −log10 of the molar value.
PARAMETER_MEASURED: pIC50

>>> value("N#C[C@@H]1CSCN1C(=O)CNC(=O)c1ccnc2ccc(N3CCC(F)(F)CC3)cc12 [Example 35]")
9.77

A: N#C[C@@H]1CSCN1C(=O)CNC(=O)c1ccnc2ccc(-c3cncnc3)cc12 [Example 127]
B: COc1ccc(-c2ccc3nccc(C(=O)NCC(=O)N4CSC[C@H]4C#N)c3c2)cn1 [Example 178]
Smaller pIC50 value? Options are A and B // output: label of the selected item
A

---

TEST_TARGET: human Fibroblast activation protein alpha (hFAP) (Homo sapiens (Human), UniProt Q12884)
METHOD: hFAP inhibition assay (tight binders); note: hFAP 2.4 pM
Type: biochemical
APPLIED_CONDITIONS: Ala-Pro-AMC 20 μM, n = 1 or geometric mean n = 2-6
pIC50: −log10 of the molar value.
PARAMETER_MEASURED: pIC50

A: CCC1(O)CN(c2ccc3nccc(C(=O)NCC(=O)N4CSC[C@H]4C#N)c3c2)C1
B: CO[C@@H]1CCN(c2ccc3nccc(C(=O)NCC(=O)N4CSC[C@H]4C#N)c3c2)C1
Looking at A and B , which one comes out lower in pIC50 terms? Reply briefly: the label of your chosen item.
A

a: N#C[C@@H]1CSCN1C(=O)CNC(=O)c1ccnc2ccc(N3CCC[C@H]3C(F)(F)F)cc12
b: N#C[C@@H]1CSCN1C(=O)CNC(=O)c1ccnc2ccc(N3CCO[C@H](C(F)(F)F)C3)cc12
Min pIC50? a | b Label of pick, please.
a

---

Hi! I'm sharing some pIC50 results obtained with human Fibroblast activation protein alpha (hFAP) (Homo sapiens (Human), UniProt Q12884).
pIC50: −log10 of the molar value.
PARAMETER_MEASURED: pIC50

Worked set:
>>> value("N#C[C@@H]1CSCN1C(=O)CNC(=O)c1ccnc2ccc(N3CCOC[C@@H]3C(F)(F)F)cc12 (single isomer, unassigned) [Example 85]")
10.06
>>> value("N#C[C@@H]1CSCN1C(=O)CNC(=O)c1ccnc2ccc(N3CCCC(F)(F)C3)cc12")
10.08
>>> value("N#C[C@@H]1CSCN1C(=O)CNC(=O)c1ccnc2ccc(N3CCO[C@@H](C(F)(F)F)C3)cc12")
9.89
>>> value("CC1(CC(F)F)CN(c2ccc3nccc(C(=O)NCC(=O)N4CSC[C@H]4C#N)c3c2)C1")
10.00
>>> value("N#C[C@@H]1CSCN1C(=O)CNC(=O)c1ccnc2ccc(N3CC4(COC4)C3)cc12")
9.66

1: C[C@@H]1COC[C@@H](C)N1c1ccc2nccc(C(=O)NCC(=O)N3CSC[C@H]3C#N)c2c1
2: Cc1noc(C)c1-c1ccc2nccc(C(=O)NCC(=O)N3CSC[C@H]3C#N)c2c1
Select the item whose pIC50 value is smaller, choosing between 1 and 2 . Label of pick, please.
2
(2: 8.77, 1: 10.06)

---

A collection of compounds and their measured hHep CLint
METHOD: Metabolic stability in human hepatocytes (hHep)
Format: in vitro ADME
APPLIED_CONDITIONS: n = 1 or geometric mean of n = 2

Use these answered entries as a reference point.
>>> value("N#C[C@@H]1CSCN1C(=O)CNC(=O)c1ccnc2ccc(N3CC(F)(CF)C3)cc12")
"<1 μL/min/1E6"
>>> value("N#C[C@@H]1CSCN1C(=O)CNC(=O)c1ccnc2ccc(N3CCCCC3)cc12")
"4.1 μL/min/1E6"

Now examine the next entry.
I am curious: what hHep CLint value has been reported for N#C[C@@H]1CSCN1C(=O)CNC(=O)c1ccnc2ccc(N3CCOC4(CCOCC4)C3)cc12 ?
1.9 μL/min/1E6
